B1: TPR t1 (parent)
chain: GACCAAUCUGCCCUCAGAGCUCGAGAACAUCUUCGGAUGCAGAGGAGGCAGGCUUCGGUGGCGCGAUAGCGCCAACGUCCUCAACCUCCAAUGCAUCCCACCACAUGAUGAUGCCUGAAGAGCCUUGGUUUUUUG

Variants of: B1
Assay: polymerase ribozyme fitness, log enrichment relative to wild type (log ratio); higher = more active; in vitro selection for triplet polymerase activity
Classify as follows. Reported polymerase ribozyme fitness (log ratio) greater than or equal to -3: YES. Reported polymerase ribozyme fitness (log ratio) below: NO.

C28A G45A = NO
G17U A18C C53G = NO
U7A G69U C88G G122A = YES
C102U A118G = YES
C20A G127A = NO
A37U A43G G60A = YES

Req: In plain terms: is recorded polymerase ribozyme fitness (log ratio) at least -3 for A43U C102A C114A ?
Resp: NO

Req: Record G57U U81G ; criterion: polymerase ribozyme fitness (log ratio) no lower than -3. Met?
Resp: YES
